# TEST: Solubility of Diamine in various kinds of solvents
# Type: physicochemical
# STUDY_CONDITIONS: organic solvent or mixture, thermodynamic from solid; Sample 30 mg/solvent 2 mL; Acetone; read-out: Solubility in Acetone
# Description: Melting points and solubilities in various kinds of solvents of the diamines obtained in the above-described Examples and Comparative Examples are shown in Table 1 below. In the following Table 1, the evaluation +++ indicates soluble at room temperature, the evaluation ++ indicates soluble by heating, the evaluation + indicates half-soluble by heating, and the evaluation − indicates insoluble in solvent. […]
ENDPOINT_LABEL: solubility

> print(dat)
                                   compound  value.measured
1  Nc1cccc(C(=O)Oc2ccc(S(=O)(=O)c3ccc(OC(=O)c4cccc(N)c4)cc3)cc2)c1 [Example 4, bis[4-(3-aminobenzoyloxy)phenyl]sulfone]      < 15 mg/mL
2  Cc1cc(OC(=O)c2ccc(N)cc2)ccc1OC(=O)c1ccc(N)cc1 [Com. Ex. 2, 2,5-bis(4-aminobenzoyloxy)toluene, reference compound]      < 15 mg/mL
3  Nc1ccc(C(=O)Oc2ccc(OC(=O)c3ccc(N)cc3)cc2)cc1 [Com. Ex. 1, 1,4-bis(4-aminobenzoyloxy)benzene, reference compound]      < 15 mg/mL
4  Cc1cc(OC(=O)c2cccc(N)c2)c(C)c(C)c1OC(=O)c1cccc(N)c1 [Example 8]      > 15 mg/mL
5  Cc1cc(OC(=O)c2cccc(N)c2)ccc1OC(=O)c1cccc(N)c1 [Example 6]      > 15 mg/mL
6  Nc1cccc(C(=O)Oc2ccc(C(c3ccc(OC(=O)c4cccc(N)c4)cc3)(C(F)(F)F)C(F)(F)F)cc2)c1 [Example 2]      > 15 mg/mL

====

# TEST: Solubility of Diamine in various kinds of solvents
# Type: physicochemical
# STUDY_CONDITIONS: organic solvent or mixture, thermodynamic from solid; Sample 30 mg/solvent 2 mL; m-cresol; read-out: Solubility in m-cresol
Measured solubility of individual entries
ENDPOINT_LABEL: solubility

> print(dat)
                                   compound  endpoint.label  value.measured
1  Cc1cc(OC(=O)c2cccc(N)c2)c(C)c(C)c1OC(=O)c1cccc(N)c1 [Example 8]      solubility      > 15 mg/mL
2  Nc1cccc(C(=O)Oc2ccc(S(=O)(=O)c3ccc(OC(=O)c4cccc(N)c4)cc3)cc2)c1 [Example 4, bis[4-(3-aminobenzoyloxy)phenyl]sulfone]      solubility      > 15 mg/mL
3  Cc1cc(OC(=O)c2ccc(N)cc2)ccc1OC(=O)c1ccc(N)cc1 [Com. Ex. 2, 2,5-bis(4-aminobenzoyloxy)toluene, reference compound]      solubility      < 15 mg/mL
4  Nc1cccc(C(=O)Oc2ccc(C(c3ccc(OC(=O)c4cccc(N)c4)cc3)(C(F)(F)F)C(F)(F)F)cc2)c1 [Example 2]      solubility      > 15 mg/mL
5  Cc1cc(OC(=O)c2cccc(N)c2)ccc1OC(=O)c1cccc(N)c1 [Example 6]      solubility      > 15 mg/mL
6  Nc1ccc(C(=O)Oc2ccc(OC(=O)c3ccc(N)cc3)cc2)cc1 [Com. Ex. 1, 1,4-bis(4-aminobenzoyloxy)benzene, reference compound]      solubility      < 15 mg/mL

====

The molecules listed here are annotated with their solubility.
# TEST: Solubility of Diamine in various kinds of solvents
# Assay type: physicochemical
# STUDY_CONDITIONS: organic solvent or mixture, thermodynamic from solid; Sample 30 mg/solvent 2 mL; Ethyl acetate; read-out: Solubility in Ethyl acetate
# Text: Melting points and solubilities in various kinds of solvents of the diamines obtained in the above-described Examples and Comparative Examples are shown in Table 1 below. In the following Table 1, the evaluation +++ indicates soluble at room temperature, the evaluation ++ indicates soluble by heating, the evaluation + indicates half-soluble by heating, and the evaluation − indicates insoluble in solvent. […]
ENDPOINT_LABEL: solubility

> print(dat)
                                   molecule  value.measured
1  Cc1cc(OC(=O)c2cccc(N)c2)c(C)c(C)c1OC(=O)c1cccc(N)c1      > 15 mg/mL
2  Nc1cccc(C(=O)Oc2ccc(C(c3ccc(OC(=O)c4cccc(N)c4)cc3)(C(F)(F)F)C(F)(F)F)cc2)c1      > 15 mg/mL
3  Cc1cc(OC(=O)c2ccc(N)cc2)ccc1OC(=O)c1ccc(N)cc1 [Com. Ex. 2, 2,5-bis(4-aminobenzoyloxy)toluene, reference compound]      < 15 mg/mL
4  Nc1ccc(C(=O)Oc2ccc(OC(=O)c3ccc(N)cc3)cc2)cc1 [Com. Ex. 1, 1,4-bis(4-aminobenzoyloxy)benzene, reference compound]      < 15 mg/mL
5  Cc1cc(OC(=O)c2cccc(N)c2)ccc1OC(=O)c1cccc(N)c1      > 15 mg/mL
6  Nc1cccc(C(=O)Oc2ccc(S(=O)(=O)c3ccc(OC(=O)c4cccc(N)c4)cc3)cc2)c1 [Example 4, bis[4-(3-aminobenzoyloxy)phenyl]sulfone]      < 15 mg/mL
